target: Indoleamine 2,3-dioxygenase 1 (Homo sapiens, UniProt P14902); assay: Inhibition of IDO1 in IFNgamma-induced human A-431 cells assessed as reduction in kynurenine production using tryptophan as substrate measured after 24 hrs by microplate reader assay; format: cell-based
Sequence (P14902 whole entry): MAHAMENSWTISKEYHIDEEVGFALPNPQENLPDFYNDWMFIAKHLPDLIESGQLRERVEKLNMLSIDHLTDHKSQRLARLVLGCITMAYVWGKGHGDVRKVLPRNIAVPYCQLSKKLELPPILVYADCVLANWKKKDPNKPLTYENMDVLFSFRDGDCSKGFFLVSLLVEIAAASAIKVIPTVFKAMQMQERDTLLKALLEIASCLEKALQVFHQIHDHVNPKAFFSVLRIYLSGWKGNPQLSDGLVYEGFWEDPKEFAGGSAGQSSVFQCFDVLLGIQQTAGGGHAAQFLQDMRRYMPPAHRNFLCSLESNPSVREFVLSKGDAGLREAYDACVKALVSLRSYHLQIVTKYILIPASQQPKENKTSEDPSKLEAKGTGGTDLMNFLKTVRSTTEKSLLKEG
pIC50: −log10 of the molar value.
Entries and their pIC50 values follow.

>  <structure smiles string>
O=C(SCc1ccc(Cl)cc1Cl)Sc1ccc(O)cc1

>  <target entity>
Indoleamine 2,3-dioxygenase 1 (Homo sapiens, UniProt P14902)

>  <pIC50>
6.40

$$$$
>  <structure smiles string>
O=C(SCc1ccc(Cl)cc1Cl)Sc1ccc(CO)cc1

>  <target entity>
Indoleamine 2,3-dioxygenase 1 (Homo sapiens, UniProt P14902)

>  <pIC50>
6.57

$$$$
>  <structure smiles string>
O=C(SCc1ccc(Cl)cc1Cl)Sc1cccc(O)c1

>  <target entity>
Indoleamine 2,3-dioxygenase 1 (Homo sapiens, UniProt P14902)

>  <pIC50>
6.36

$$$$
>  <structure smiles string>
O=C(SCc1ccccc1)Sc1ccc(O)cc1

>  <target entity>
Indoleamine 2,3-dioxygenase 1 (Homo sapiens, UniProt P14902)

>  <pIC50>
5.44

$$$$
